Test: yeast display, Sf9 membrane polyspecificity reagent, FACS + sequencing; frameworks hold sequencing errors

sequence.record: QVQLVESGGGLVQAGGSLRLSCAASGRTFTEYAMGWYRQAPGKERELVARISIGDSTYYADSVKGRFTISRDNAKNTVYLQMNSLKPEDTAVYYCNAEYSRSYRYDEGYWGQGTQVTVSS
polyreactivity (PSR sort gate): low polyreactivity
--
sequence.record: QVQLVESGGGLVQAGGSLRLSCAASGNTFRYYAMGWYRQAPGKERELVAAISRNGGSTYADSVKGRFTISRDNAKNTVYLQMNSLKPEDTAVYYCNAYRIRPGTPYGKGYYYWGQGTQVTVSS
polyreactivity (PSR sort gate): high polyreactivity
--
sequence.record: QVQLVESGGGLVQAGGSLRLSCAASGRIGRNAMGWYRQAPVKERELVATISWSAGRTFYADSVKGRFTISRDNAKNTVYLQMNSLKPEDTAVYYCAAGGWQRGYYWGQGTQVTVSS
polyreactivity (PSR sort gate): high polyreactivity
--
sequence.record: QVQLLESGGGLVQAGGSLRLSCAASGSIIPYYAMGWYRQAPGKESELVAAITSGGGSTYYADSVKGRFTISRDNAMNSVYLQMNSLKPEDTAVYYCAAVLTSYYGGDYWGQGTQVTVSS
polyreactivity (PSR sort gate): low polyreactivity
--
sequence.record: QVQLVESGGGLVQAGGSLRLSCAASGRIFWQYAMGWYRQAPGKERELVAAISRSGGSTYYADSVKGRFTISRDNAKNTVYLQMKCLTPEDTAVYYCAARKASGVPGSAGRPEYYYWGQGTQVTVSS
polyreactivity (PSR sort gate): high polyreactivity

----------
Experiment: yeast display, Sf9 membrane polyspecificity reagent, FACS + sequencing; frameworks hold sequencing errors

sequence.record: QDQLVESCGALVQAGGSLRLSCAASGSTFNFYAMGWYRQAPGKERELVAAITWRGGSTYYADSVKGRFTISRDFAKNTVYLQMNSLKPEDSAVYYCAAARGKDGYWGQGTQVNVSS
polyreactivity (PSR sort gate): high polyreactivity

sequence.record: QVQLVESGGGLVQAGGSLRLSCAASGIIFSDYAMGWYRQAPGKERELVAAISRNGGSTYYADSVKGRFTISRDNAKNTVYLHMTSLKPEDTAVYYCAATRRYRYNWGQGTQVSVSS
polyreactivity (PSR sort gate): high polyreactivity

sequence.record: QVQLVESGGRLVQAGGSLRLSCAASGSIFYRYAMGWYRQAPGQERELVATINSDGGDTYYADSVKGRFTISRDNAKNTVSLQMNSLKPEDTAVYYSAKGYYVLYRAWYDSYDYWGQGTQVTVSS
polyreactivity (PSR sort gate): low polyreactivity

sequence.record: QVQLVESGGGLVQAGGSLRLSCAASGSTFTRYGMGWYRQAPGKEREMVAAITTSGSSTYYADSVKGRFTISRDNAKNTVYLQMNSLKPEDTAVYYCAADWSSWGFDYWGQGTQVNVSS
polyreactivity (PSR sort gate): low polyreactivity

sequence.record: QVQLVESGGGLVQAGGSLRLSCAASGSTLGYYAMGWYRQAPGKERELVAAIRYSDGNTYYADSVKGRFTISRDNAKNTVYLQMNSLKPEDTAVYYCAADGGYYGREYWGQGTQVTVSS
polyreactivity (PSR sort gate): high polyreactivity

sequence.record: QVQLVESGGGLVQAGCSLRLSCAASGSIYPYAMGCYRQAPGKESELVAAINFNGGRTYYAHSVNGRFTISRDNAKNTVYLQMTSLKPDVTAFYYCAARISVYSTLPNDFDYWGQGTQVTVSS
polyreactivity (PSR sort gate): high polyreactivity

sequence.record: QVQLVESGGGLVQAGGSLRLSCADSGLIFGRNAMGWYRQAPGKERELVAAITSGGSTYYADSVKGRFTISRDNAKNTVYLQRNSLKPEDTAVYYCAADVVDLYLLDYWGQGTQVTVSS
polyreactivity (PSR sort gate): low polyreactivity

sequence.record: QVQLVESGGGLVQAGGSLRLSCAASGSTYAGYAMGWYRQAPGKERELVAAISRRGGSTYYADSVKGRFTISRDNAKNTVYLQMNSLKPEDTAVNYCNRDKYLRDPDYDYWGQGTQVTVSS
polyreactivity (PSR sort gate): low polyreactivity

sequence.record: QVQLVESGGGLVQAGGSLRLSCAASGSIFSPNDMGWYRQAPGKERELVAAITSAGSTYYADSVKGRFTISRDNAKNTVYLQMNSLKPEDTAVYYCSASYISVTDYAYFPLWYGYWGQGTQVTVSS
polyreactivity (PSR sort gate): low polyreactivity

sequence.record: QVQLVESGGGLVQAGGSLRLSCAASGRTFNYYGMGWYRQAPGKERELVAAINSGDNTYYADSVKGRFTISRDNAKNTVYLQMTSLKPEDTAVYYCNTDAFWYYYSWYDYWGQGTQVTVSS
polyreactivity (PSR sort gate): low polyreactivity

sequence.record: QVQLVESGGGLVQAGGSLRLSCAASGRIFYGNAMGWYRQAPGKERELVAAIRRSGGSTYYAESVKGRVTISRDNAKNTVYLQMNSLKPEDTAVYYRNADAFNKISYVWYDYWGQGPQVTVSS
polyreactivity (PSR sort gate): low polyreactivity

sequence.record: QVQLVESGGGLVQAGGSLRLSCAASGLTFSPYAMGWYRQAPGKERELVATITIGGSTKYADSVKGRFTISRDNAKNTVYLQMNSLKPEDPAVYYCAVRSGYVTRRYDYWGQGTQVTVSS
polyreactivity (PSR sort gate): low polyreactivity

sequence.record: QVQLVESGGGLVQAGGRLRLSCAASGSTFDVYAMGWYRQAPGKERELVAVINTSGTRTYYADSVKGRFTISRDNAKNTVYLQRNSLKPEDTAVYYCNAGGHLEMNYWGQGTQVTVSS
polyreactivity (PSR sort gate): low polyreactivity

sequence.record: QVQLVESGGGLVQAGGSLRLSCAASGSTIDIYAMGWYRQAPGKERELVAAISNSGDTYYADSVKGRFTISRDNAKNTVYLQMNSLKPEDTAVYYCAAPAAGDEYDYWGQGTQVTVSS
polyreactivity (PSR sort gate): high polyreactivity

sequence.record: QFQLVESGGGLVQAGGSLRLSCAASGSTFIRYAMGWYRQAPGKERELVAAISRSGGNTYYADSVKGRFTISRDKAKNTVYLQMNSLKPEDTAVYYCNKDRQQALNYWGQGTQVNVSS
polyreactivity (PSR sort gate): high polyreactivity

sequence.record: QVQLVESGGGLVQAGGSLRLSCAASGITFRRYTMGWYRQAPGKEWELVATISLSDGNTYYADSVKGRFTISRDNAKTTVYLQMNSLKPEDTAGYYCNARHTWHQTYDYWGQGTQVTVSS
polyreactivity (PSR sort gate): low polyreactivity

sequence.record: HVQLVESGGGLVQAGGSLRLSSAASGITFYHNAMGWYRQAPGKEMELVAVSSRGGSTYYADSVKGRFTISRDNAKNTVYLQMNSLKPEDTAVYYCNARFWSYRGQVWYYYWGQGTQVTVSS
polyreactivity (PSR sort gate): high polyreactivity

sequence.record: QVQLVESGGGLVQAGGSLRLSCAASGSTFVRNAMGWYRQAPGKEREFVASISSTSGRTYYADSVKGRFTISRDNAKNTVYLQMNRLKPEDTAVYYCAADVPPKYRHRYTLYDYWGQGTQVTVSS
polyreactivity (PSR sort gate): low polyreactivity

sequence.record: QFQLVESGGGLVQAGGSLRLSCAASGITFGSSAMGWYRQAPGKDRELVAAIDTSGDDTYYADSVKGRFTISRDNAKNTVYLQMNSLKPEDTAVYYCNAVSTASDEYDYWGQGSQVTVSS
polyreactivity (PSR sort gate): low polyreactivity

sequence.record: QVQLLESGGGLVQAGGSLRLSCAASGSTFWWNTMGWYRQAPGKERELVADIRPSGGGTYYADSVKGRFTISRDNAKNTVYLPMHSLKPEATAVYYCNADPKWEMGSWGQGTQVTVSS
polyreactivity (PSR sort gate): low polyreactivity

sequence.record: QVQLVESGGGLVQAGGSLRLSCAASGFTFRNYAMGGYRQAPGKERELVAAISKSGGSTYYADSVKGRFTISRDNAKNTVYLQMNSLNPEDTAVYYCATDYLYVYGFEYYYWGQGTQVTVSS
polyreactivity (PSR sort gate): high polyreactivity

----------
Assay: yeast display, Sf9 membrane polyspecificity reagent, FACS + sequencing; frameworks hold sequencing errors

sequence.record: QVQLVESGGGLVQAGGSLRLSCAASGRILYNYAMGWYRQAPGKERELVAAISSGGSTNYADSVKGRFTISRDNAKNTVYLQMNSLKPEDTAVYYCAAYRGHSWRGLYRWSDYDYWGQGTQVTVSS
polyreactivity (PSR sort gate): low polyreactivity
--
sequence.record: QVQLVESGGGLVQAGGSLRLSCAASGFTFRLNAMGWYRQAPGKEREMVAAISSSGGRTYYADSVKGRFTISRDNAKNTVYLQLNSLKPEDTAVYYCAADYTTRYLDGVVARGYYWGQGTQVTVSS
polyreactivity (PSR sort gate): high polyreactivity
--
sequence.record: QVQLVESGGGLVQAGGSLRLSCAASGFTFVEYAMGWYRQATGKERELVAAITSGGSTYYADSVKGRFTISRDNAKNTVYLQMNSLKPADTAVYYCNAEGVVVAISHFSVQDGYWGQGTQVTVSS
polyreactivity (PSR sort gate): low polyreactivity
--
sequence.record: QVQLVESGGGLVQAGGSLRLSCAASGSTFFRYAMGWYRQAPGKERELVAAITSGGNTYYADSVKGRFTISRDNAKNTVYLQMNSLIPEDTAVYYCAVVFWQLAHRYDYWGQGTQVTVSS
polyreactivity (PSR sort gate): low polyreactivity
--
sequence.record: QVQLVESGGGLVQAGGSLRLSCAASGSIFYTYAMGWYRQAPGKERELVAAISGTGTSTYYADSVKGRFTISRDHAKNTVYLQMNSLKPEDTAVYFCATHGGAAWGRYYWYYGYWGQGTQVTVSS
polyreactivity (PSR sort gate): low polyreactivity
--
sequence.record: QVQLVESGGGLVHAGGSLGLICAASGFIFYRYAMGWYRQAPGKERELVAAISWSGGTTYYADSVKGRFSISRDNAKNTVYLQMNSLKPEDTAVYYCAATRLRTEYYWGHGTQVTVSS
polyreactivity (PSR sort gate): high polyreactivity
--
sequence.record: QVQLVESGGGLVQAGGSLRLSCAASGFIFYSYDMGWYRQAPGKERELVAANDSRGVNTYYADSVKGRFTISRDNAKNTVYLQMNSLKPEDTAVYYCAAQASSQIDYYGGHYGYWGQGTQVTVSS
polyreactivity (PSR sort gate): low polyreactivity
--
sequence.record: QVQLVESGGGLVQAGGSLRLSCDASGSTFWYAMGWYIKAPGKEMDLVAAITARGGRTYYADSVKGRFTISRDNAKNTVYLQMNSLKPEDTAVYYCARLSYAGGQWIIGKYDYWGQGTQVTVSS
polyreactivity (PSR sort gate): high polyreactivity
--
sequence.record: REQLQESGGGLVQAGGSLRLSCAASGTIFIRGDMGWYRQSPGKEREFVATIDTGSNTYYADSEKGRFTISRDNAINAVYLQMYCLKPGYTAVYYCVVDYQLSGRLRYWGQGTQVTLSS
polyreactivity (PSR sort gate): low polyreactivity
--
sequence.record: QVQLVESGGGLVQAGGSLRLSCAASGNTFRSYAMGWYRQAPGKERELVAAISGRGGSTYYADSVKGRFTISRDNAKNTVDLQMNSRKPEDTAVYYCAAESRRVNYANDYWGQGTQVTVSS
polyreactivity (PSR sort gate): high polyreactivity
--
sequence.record: QVQLVESGGGLVQAGGSLRLSCAASGSIFGYYAMGWYRQAPGKERELVAAITYSGGRTYYADSVKGRFTISRDNAKNTVYLQMNSLKPEDTAVYYCARAPPGDRFVRYDYWGQGTQVTVSS
polyreactivity (PSR sort gate): high polyreactivity
